Target: Mu-type opioid receptor (Homo sapiens)
Sequence (P35372 whole entry): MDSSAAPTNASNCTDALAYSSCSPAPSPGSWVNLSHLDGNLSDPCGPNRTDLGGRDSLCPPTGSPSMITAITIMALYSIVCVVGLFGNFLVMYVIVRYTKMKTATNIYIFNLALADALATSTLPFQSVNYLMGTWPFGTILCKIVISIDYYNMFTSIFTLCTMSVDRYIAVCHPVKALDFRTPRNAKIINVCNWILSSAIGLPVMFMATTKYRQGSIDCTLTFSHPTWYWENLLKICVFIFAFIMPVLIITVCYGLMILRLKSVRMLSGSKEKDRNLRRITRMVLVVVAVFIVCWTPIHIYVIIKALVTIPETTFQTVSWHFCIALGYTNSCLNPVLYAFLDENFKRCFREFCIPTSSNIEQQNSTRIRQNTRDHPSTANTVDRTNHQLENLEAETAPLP
Test: Agonist activity at human Rluc8-tagged MOP expressed in HEK293 cells coexpressing eYFP-tagged beta-arrestin-2 assessed as beta-arrestin-2 recruitment incubated for 5 mins by luminometer analysis
Type: functional, cell-based
Details: read-out: EC50
Numbered stars: 1 amine (or outer) side, 2 acyl side, 3 side chain; on linkers, the order of the positions; unused ones are H or OH. Square brackets hold non-standard residues; d marks the D form. Peptide text beside a SMILES is read from it. Nva(5-(4-Bn-piperidin-1-yl)) = N[C@@H](CCCN1CCC(Cc2ccccc2)CC1)C(=O)O; X1 = O=C1[C@@H](N[*:1])Cc2ccccc2CN1CCC(=O)[*:2]; Dmt = Cc1cc(O)cc(C)c1C[C@H](N)C(=O)O; dOrn = NCCC[C@@H](N)C(=O)O; Sar = CNCC(=O)O
Outcome Measure: EC50 (nM)
Number in nM, nothing else.

As a guide, the following entries are already answered.
{"Molecule": "Cc1cc(O)cc(C)c1C[C@H](N)C(=O)N[C@H](CCCNC(=N)N)C(=O)N[C@H]1Cc2ccccc2CN(CCC(=O)N[C@@H](CCCN2CCc3ccccc3C2)C(=O)N[C@@H](Cc2ccccc2)C(N)=O)C1=O", "EC50, nM": 25}
{"Molecule": "Cc1cc(O)cc(C)c1C[C@H](NC(=N)N)C(=O)N[C@H](CCCNC(=N)N)C(=O)N[C@H]1Cc2ccccc2CN(CCC(=O)N[C@@H](CCCN2CCC(Cc3ccccc3)CC2)C(=O)N[C@@H](Cc2ccccc2)C(N)=O)C1=O", "EC50, nM": 119}
{"Molecule": "Cc1cc(O)cc(C)c1C[C@H](N)C(=O)N[C@H](CCCNC(=N)N)C(=O)N[C@@H](Cc1ccccc1)C(=O)N(C)CCC(=O)N[C@@H](CCCN1CCC(Cc2ccccc2)CC1)C(=O)N[C@@H](Cc1ccccc1)C(N)=O", "EC50, nM": 45}
{"Molecule": "Cc1cc(O)cc(C)c1C[C@H](N)C(=O)N[C@H](CCCNC(=N)N)C(=O)N[C@@H](Cc1ccccc1)C(=O)N(C)CC(=O)N[C@@H](CCCN1CCC(Cc2ccccc2)CC1)C(=O)N[C@H](C(N)=O)C(C)C (H-[Dmt][dR]F[Sar][Nva(5-(4-Bn-piperidin-1-yl))]V-NH2)", "EC50, nM": 59}
{"Molecule": "Cc1cc(O)cc(C)c1C[C@H](N)C(=O)N[C@H](CCCNC(=N)N)C(=O)N[C@@H](Cc1ccccc1)C(=O)N(C)[C@H](C)C(=O)N[C@@H](CCCN1CCC(Cc2ccccc2)CC1)C(=O)N[C@@H](Cc1ccccc1)C(N)=O", "EC50, nM": 154}

Measured on Mu-type opioid receptor (Homo sapiens), Cc1cc(O)cc(C)c1C[C@H](N)C(=O)N[C@H](CCCN)C(=O)N[C@H]1Cc2ccccc2CN(CCC(=O)N[C@@H](CCCN2CCC(Cc3ccccc3)CC2)C(=O)N[C@@H](Cc2ccccc2)C(N)=O)C1=O (H-[Dmt][dOrn][X1][Nva(5-(4-Bn-piperidin-1-yl))]F-NH2) has a documented EC50 of 2350

Measured on Mu-type opioid receptor (Homo sapiens), Cc1cc(O)cc(C)c1C[C@H](N)C(=O)N[C@H](CCCNC(=N)N)C(=O)N[C@@H](Cc1ccccc1)C(=O)N(C)CC(=O)N[C@@H](CCCN1CCC(Cc2ccccc2)CC1)C(=O)N[C@@H](Cc1ccccc1)C(N)=O (H-[Dmt][dR]F[Sar][Nva(5-(4-Bn-piperidin-1-yl))]F-NH2) has a documented EC50 of 53

Measured on Mu-type opioid receptor (Homo sapiens), Cc1cc(O)cc(C)c1C[C@H](N)C(=O)N[C@H](CCCNC(=N)N)C(=O)N[C@H]1Cc2ccccc2CN(CC(=O)N[C@@H](CCCN2CCC(Cc3ccccc3)CC2)C(=O)N[C@@H](Cc2ccccc2)C(N)=O)C1=O has a documented EC50 of 704
